Would you mind telling me the reported half-life of each entry?
ASSAY_TEXT: Half-life in human plasma by incubation at […]
Assay type: ADME, cell-free
Answers are plain numbers, in h.

Completed entries (count: 3):
The compound CCOC(=O)/C=C/[C@H](CC(C)C)NC(=O)[C@H](CC(C)C)NC(=O)[C@H](CC(C)C)NC(=O)OCc1ccccc1 showed half-life equal to 4.87

For reference, reported half-life for CCOC(=O)/C=C/[C@H](CC(C)C)NC(=O)[C@H](CO)NC(=O)[C@@H](NC(=O)OCc1ccccc1)C(C)C stands at 3.97

Lab note: CCOC(=O)/C=C/[C@H](CC(C)C)NC(=O)[C@H](CC(C)C)NC(=O)[C@H](CC(C)C)NC(=O)C1=CCCN(C(=O)OC(C)(C)C)C1 gave half-life of 3.3

Now consider a different compound.
Notebook: CCOC(=O)/C=C/[C@H](CC(C)C)NC(=O)[C@H](CO)NC(=O)[C@@H](NC(=O)C1=CCCN(C(=O)OC(C)(C)C)C1)C(C)C , half-life read as 2.57

----------
ASSAY_TEXT: Half-life in culture medium (RPMI) in the presence of 10% foetal calf serum by incubation at […]
Format: ADME
CONDITIONS: cattle, culture medium (RPMI) with 10% foetal calf serum
Assign half-life to each entry below.

For reference, reported half-life for CCOC(=O)/C=C/[C@H](CC(C)C)NC(=O)[C@H](CO)NC(=O)[C@@H](NC(=O)C1=CCCNC1)C(C)C stands at > 6 h

What the record says about CCOC(=O)/C=C/[C@H](CC(C)C)NC(=O)[C@H](CO)NC(=O)[C@@H](NC(=O)C1=CCCN(C(=O)OC(C)(C)C)C1)C(C)C : half-life is > 6 h

// half-life lookup, compound = CCOC(=O)/C=C/[C@H](CC(C)C)NC(=O)[C@H](CO)NC(=O)[C@@H](NC(=O)OCc1ccccc1)C(C)C , result: > 6 h

// CCOC(=O)/C=C/[C@H](CC(C)C)NC(=O)[C@H](CC(C)C)NC(=O)[C@H](CC(C)C)NC(=O)c1cccc(O)c1C : half-life value = > 6 h

half-life for CCOC(=O)/C=C/[C@H](CC(C)C)NC(=O)[C@H](CC(C)C)NC(=O)[C@H](CC(C)C)NC(=O)OCc1ccccc1 is > 6 h

Value of half-life reported for the compound CCOC(=O)/C=C/[C@H](CC(C)C)NC(=O)[C@H](CC(C)C)NC(=O)[C@H](CC(C)C)NC(=O)C1=CCCN(C(=O)OC(C)(C)C)C1 is > 6 h

I'm hoping you can list half-life for every compound here, please.
1. CCOC(=O)/C=C/[C@H](CC(C)C)NC(=O)[C@H](CO)NC(=O)[C@@H](NC(=O)c1cccc(O)c1C)C(C)C
2. CCOC(=O)/C=C/[C@H](CC(C)C)NC(=O)[C@H](CC(C)C)NC(=O)[C@H](CC(C)C)NC(=O)C1=CCCNC1

// result
["> 6 h", "> 6 h"]

----------
So I've got a bunch of compounds here, and I need their pIC50 values.
System: Proteasome
ASSAY_TEXT: Inhibition of trypsin like activity of the proteasome purified from lymphoblastoid cell lines (in vitro)
Format: subcellular
Answers are plain numbers, as −log10 of the molar value.

Some compounds with known pIC50 results, for comparison:
Per the record, CCOC(=O)/C=C/[C@H](CC(C)C)NC(=O)[C@H](CC(C)C)NC(=O)[C@H](CC(C)C)NC(=O)c1cccc(O)c1C has pIC50 of 7.39

pIC50 reading for CCOC(=O)/C=C/[C@H](CC(C)C)NC(=O)[C@H](CO)NC(=O)[C@@H](NC(=O)OCc1ccccc1)C(C)C : 7.15

Take each entry in turn and give its pIC50.
1. CCOC(=O)/C=C/[C@H](CC(C)C)NC(=O)[C@H](CC(C)C)NC(=O)[C@H](CC(C)C)NC(=O)C1=CCCNC1
2. CCOC(=O)/C=C/[C@H](CC(C)C)NC(=O)[C@H](CO)NC(=O)[C@@H](NC(=O)c1cccc(O)c1C)C(C)C
3. CCOC(=O)/C=C/[C@H](CC(C)C)NC(=O)[C@H](CC(C)C)NC(=O)[C@H](CC(C)C)NC(=O)OCc1ccccc1
4. CCOC(=O)/C=C/[C@H](CC(C)C)NC(=O)[C@H](CO)NC(=O)[C@@H](NC(=O)C1=CCCNC1)C(C)C
5. CCOC(=O)/C=C/[C@H](CC(C)C)NC(=O)[C@H](CO)NC(=O)[C@@H](NC(=O)C1=CCCN(C(=O)OC(C)(C)C)C1)C(C)C
6. CCOC(=O)/C=C/[C@H](CC(C)C)NC(=O)[C@H](CC(C)C)NC(=O)[C@H](CC(C)C)NC(=O)C1=CCCN(C(=O)OC(C)(C)C)C1

// result
6.68
7.48
6.55
6.42
6.96
6.72
